Origin of measurements: the RNAGym collection of RNA variant scans (doi:10.1073/pnas.2313332121)

polymerase ribozyme fitness (log ratio): recorded values
B1: TPR 5TU (parent)
chain: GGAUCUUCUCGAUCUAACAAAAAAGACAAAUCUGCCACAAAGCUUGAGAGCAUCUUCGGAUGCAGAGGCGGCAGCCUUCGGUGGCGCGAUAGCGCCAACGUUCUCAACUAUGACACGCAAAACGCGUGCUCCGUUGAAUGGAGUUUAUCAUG

- Variants of: B1
- test_summary: polymerase ribozyme fitness, log enrichment relative to wild type (log ratio); higher = more active; in vitro selection for triplet polymerase activity
Fewer inactive variants are shown than the library holds.

Some entries whose results are on file:
INSERT INTO measurements (alteration, observed) VALUES
  ('C14A G34U G74C G84U G143A', '≤ -4.2'),
  ('U56A G81A', -0.577),
  ('C85U A147G', -1.25);

Briefly, polymerase ribozyme fitness (log ratio) measured for U101G A138U : -3.25

Briefly, polymerase ribozyme fitness (log ratio) measured for U56A G81U C93U G141C : -1.52

Briefly, polymerase ribozyme fitness (log ratio) measured for A37G C69G : -0.726

Briefly, polymerase ribozyme fitness (log ratio) measured for U4C C85A : -1.34

Briefly, polymerase ribozyme fitness (log ratio) measured for U9G G68C G83A G84A C149U : ≤ -4.2
